IC50 values, listed per item
- target-entity: HLA-DR1 (DRB1*0101) molecules (Homo sapiens, UniProt P01903+P01911, A100R/D57E/F55L/F60I/F76Y/I96L/L162R/M171V/P40L/Q125E/R42F/V115G/Y59C)
- procedure-summary: Competitive binding assay with recombinant water-soluble HLA-DR1
- run-parameters: Affinity for HLA-DR1 (DRB1*0101) molecules determined by competition with biotinylated competitor HA 306-318, biotinylated competitor HA306-318
Residues, ends and D or L forms follow the SMILES beside them.

molecule	IC50 / µM
C[C@H](N)C(=O)N[C@@H](C)C(=O)N[C@@H](CCCCN)C(=O)N[C@@H](Cc1ccc(O)cc1)C(=O)N[C@@H](C)C(=O)N[C@@H](CCC(=O)O)C(=O)N[C@@H](C)C(=O)N[C@@H](C)C(=O)N[C@@H](C)C(=O)N[C@@H](C)C(=O)N[C@@H](CCCCN)C(=O)N[C@@H](C)C(=O)N[C@@H](C)C(=O)N[C@@H](C)C(=O)N[C@@H](C)C(=O)O [compound 15] (H-AAKYAEAAAAKAAAA-OH)	42
C[C@H](N)C(=O)N[C@@H](C)C(=O)N[C@@H](CCC(=O)O)C(=O)N[C@@H](Cc1ccc(O)cc1)C(=O)N[C@@H](C)C(=O)N[C@@H](C)C(=O)N[C@@H](C)C(=O)N[C@@H](C)C(=O)N[C@@H](C)C(=O)N[C@@H](C)C(=O)N[C@@H](CCCCN)C(=O)N[C@@H](C)C(=O)N[C@@H](C)C(=O)N[C@@H](C)C(=O)N[C@@H](C)C(=O)O	47
CC(C)C[C@H](NC(=O)[C@H](CCCCN)NC(=O)[C@H](CC(C)C)NC(=O)[C@@H](NC(=O)[C@H](CC(N)=O)NC(=O)[C@H](CCC(N)=O)NC(=O)[C@H](CCCCN)NC(=O)[C@@H](NC(=O)[C@H](Cc1ccc(O)cc1)NC(=O)[C@H](CCCCN)NC(=O)[C@@H]1CCCN1C(=O)[C@H](C)N)C(C)C)[C@@H](C)O)C(=O)N[C@@H](C)C(=O)N[C@H](C(=O)N[C@@H](C)C(=O)O)[C@@H](C)O	13
